Target: human 5-HT6 receptors (Homo sapiens, UniProt P50406)
Sequence (P50406 whole entry): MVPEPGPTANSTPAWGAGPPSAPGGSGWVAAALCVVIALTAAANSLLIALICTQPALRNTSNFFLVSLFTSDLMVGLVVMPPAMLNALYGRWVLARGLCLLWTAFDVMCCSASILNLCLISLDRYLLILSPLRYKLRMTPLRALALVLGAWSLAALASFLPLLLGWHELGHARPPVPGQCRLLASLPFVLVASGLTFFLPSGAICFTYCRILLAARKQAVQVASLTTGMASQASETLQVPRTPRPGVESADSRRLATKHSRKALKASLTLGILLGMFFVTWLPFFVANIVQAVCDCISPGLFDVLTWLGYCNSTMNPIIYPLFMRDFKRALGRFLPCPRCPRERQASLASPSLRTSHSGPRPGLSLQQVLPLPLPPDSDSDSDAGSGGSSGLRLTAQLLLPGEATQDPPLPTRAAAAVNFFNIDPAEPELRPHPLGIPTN
QUANTITY_MEASURED: pKi
# pKi is unitless: minus log10 of the molar concentration; print number only

q: Which value of pKi has been reported for CN(C)CCc1c[nH]c2ccc(NS(=O)(=O)c3ccc4c(Cl)cccc4c3)cc12 [COMPOUND 1] in the records?
a: 9.13
